- PROTOCOL TEXT: log P by HPLC (OECD Guideline 117), method [b] neutral range
- Assay type: physicochemical
- ASSAY CONDITIONS: HPLC, method [b] neutral range
RECORDED METRIC: logP[b]

{"COMPOUND": "Cc1cc(Cl)c(-n2nc(OCC(C)(C)C)n(C3CC3)c2=O)cc1SCC(F)(F)F [Example 396]", "EXPERIMENTAL RESULT": 4.85}
{"COMPOUND": "Cc1ccc(-n2nc(OC(C)C)n(C)c2=O)cc1[S+]([O-])CC(F)(F)F (stereo not shown) [Example 163]", "EXPERIMENTAL RESULT": 2.80}
{"COMPOUND": "COC1=CC(=O)N(c2cc([S+]([O-])CC(F)(F)F)c(Cl)cc2Cl)C1 (racemic) [Example 314]", "EXPERIMENTAL RESULT": 2.23}
{"COMPOUND": "COCc1nn(-c2cc([S+]([O-])CC(F)(F)F)c(C)cc2F)c(=O)n1C1CC1 (stereo not shown) [Example 45]", "EXPERIMENTAL RESULT": 1.96}
{"COMPOUND": "CCn1c(S(C)(=O)=O)nn(-c2cc([S+]([O-])CC(F)(F)F)c(C)cc2F)c1=O (stereo not shown) [Example 422]", "EXPERIMENTAL RESULT": 2.11}
{"COMPOUND": "CCCCOc1nn(-c2cc([S+]([O-])CC(F)(F)F)c(C)cc2F)c(=O)n1C (stereo not shown) [Example 146]", "EXPERIMENTAL RESULT": 2.85}
{"COMPOUND": "C=CCn1c([S+]([O-])CC)nn(-c2cc([S+]([O-])CC(F)(F)F)c(C)cc2F)c1=O (stereo not shown) [Example 424]", "EXPERIMENTAL RESULT": 2.04}
{"COMPOUND": "Cc1cc(F)c(-n2nc(C(C)C)n(C3CC3)c2=O)cc1[S+]([O-])CC(F)(F)F (stereo not shown) [Example 43]", "EXPERIMENTAL RESULT": 2.47}
{"COMPOUND": "Cc1cc(F)c(-n2nc(OCC(C)(C)C)n(C3CC3)c2=O)cc1[S+]([O-])CC(F)(F)F (racemic) [Example 387]", "EXPERIMENTAL RESULT": 3.52}
{"COMPOUND": "COc1nn(-c2ccc(Cl)c([S+]([O-])CC(F)(F)F)c2)c(=O)n1C (stereo not shown) [Example 99]", "EXPERIMENTAL RESULT": 2.52}
{"COMPOUND": "CCCOc1nn(-c2cc(SCC(F)(F)F)c(C)cc2F)c(=O)n1C1CC1 [Example 113]", "EXPERIMENTAL RESULT": 3.92}
{"COMPOUND": "CCn1c(C(F)(F)F)nn(-c2cc(SCC(F)(F)F)c(C)cc2Cl)c1=O [Example 50]", "EXPERIMENTAL RESULT": 4.07}
{"COMPOUND": "Cc1cc(F)c(-n2nc(SCC(F)(F)F)n(C3CC3)c2=O)cc1SCC(F)(F)F [Example 254]", "EXPERIMENTAL RESULT": 3.84}
{"COMPOUND": "Cc1cc(F)c(-n2ccn(C(C)(C)C)c2=O)cc1[S+]([O-])CC(F)(F)F (stereo not shown) [Example 489]", "EXPERIMENTAL RESULT": 2.47}
{"COMPOUND": "Cc1cc(F)c(-n2nc(SC(C)C)n(C3CC3)c2=O)cc1SCC(F)(F)F [Example 268]", "EXPERIMENTAL RESULT": 4.28}
{"COMPOUND": "CCOc1nn(-c2cc(SCC(F)(F)F)c(C)cc2F)c(=O)n1C [Example 129]", "EXPERIMENTAL RESULT": 3.14}
